The origin of these recorded values is ChEMBL document CHEMBL1157784.

test: Growth inhibition of human renal cancer cell by NCI-CLS assay; assay type: functional; details: Cancer cell lines
Counter-ions that a name gives are not always drawn.
reported.endpoint: GI50
Field: value (include unit after the number)

Known GI50 results, listed for orientation:
INSERT INTO measurements (compound, reported_endpoint, result) VALUES
  ('COc1ccc2c(c1)/C(=C\c1ccc3ccc4ccc(/C=C5/C(=O)Nc6ccc(OC)cc65)nc4c3n1)C(=O)N2', 'GI50', '3.3 µM'),
  ('COc1ccc2c(c1)/C(=C\c1cc(C(C)(C)C)cc(/C=C3/C(=O)Nc4ccc(OC)cc43)c1O)C(=O)N2', 'GI50', '7.2 µM'),
  ('COc1ccc2c(c1)/C(=C\c1cccc(/C=C3/C(=O)Nc4ccc(OC)cc43)c1)C(=O)N2', 'GI50', '2.5 µM'),
  ('CC[C@]1(O)C[C@H]2CN(CCc3c([nH]c4ccccc34)[C@@](C(=O)OC)(c3cc4c(cc3OC)N(C=O)[C@H]3[C@@](O)(C(=O)OC)[C@H](OC(C)=O)[C@]5(CC)C=CCN6CC[C@]43[C@@H]65)C2)C1 [VINCRISTINE SULFATE]', 'GI50', '0.3 µM'),
  ('Cc1[nH]c(C)c(/C=C2/C(=O)Nc3ccc(F)cc32)c1/C=C1/C(=O)Nc2ccc(F)cc21', 'GI50', '9.1 µM'),
  ('COc1ccc2c(c1)/C(=C\c1ccccc1/C=C1/C(=O)Nc3ccc(OC)cc31)C(=O)N2', 'GI50', '21.4 µM'),
  ('O=C1Nc2cc(OC(F)(F)F)ccc2/C1=C\c1cccc(/C=C2/C(=O)Nc3cc(OC(F)(F)F)ccc32)n1', 'GI50', '0.3 µM'),
  ('O=C1Nc2cccc(Cl)c2/C1=C\c1ccc2ccc3ccc(/C=C4/C(=O)Nc5cccc(Cl)c54)nc3c2n1', 'GI50', '9.5 µM');

Request the reported GI50 associated with `O=C1Nc2cccc(I)c2/C1=C\c1cccc(/C=C2/C(=O)Nc3cccc(I)c32)n1`
0.9 µM

Looking for the measured GI50 of `O=Cc1cccc(/C=C2/C(=O)Nc3c2ccc2ccccc32)n1` , can you help?
10.7 µM

Which GI50 is reported for this compound? `COc1ccc(OC)c2c1NC(=O)/C2=C/c1cccc(/C=C2/C(=O)Nc3c(OC)ccc(OC)c32)n1`
0.7 µM

Entry `COc1cc2c(c(OC)c1OC)/C(=C\c1cccc(/C=C3/C(=O)Nc4cc(OC)c(OC)c(OC)c43)n1)C(=O)N2` has what GI50?
0.3 µM

Give its GI50 value. Item: `COc1ccc2c(c1)/C(=C\c1cc(OC)c(O)c(-c3cc(/C=C4/C(=O)Nc5ccc(OC)cc54)cc(OC)c3O)c1)C(=O)N2`
20.9 µM

Tell me the measured GI50 of `O=C1Nc2cccc(Cl)c2/C1=C\c1cccc(/C=C2/C(=O)Nc3cccc(Cl)c32)c1` , please.
2.3 µM

Record request: GI50 value, item `O=C1Nc2c(ccc3ccccc23)/C1=C\c1cccc(/C=C2/C(=O)Nc3c2ccc2ccccc32)n1`
17 µM

Query (compound): `CC(C)(C)c1cc(/C=C2/C(=O)Nc3cccc(Cl)c32)c(O)c(/C=C2/C(=O)Nc3cccc(Cl)c32)c1` ; field requested: GI50
3.6 µM

# lookup: GI50 of `O=C1Nc2cccc(F)c2C1=Cc1cccc(C=C2C(=O)Nc3cccc(F)c32)n1`
1.1 µM
